B1: mRNA-splicing (parent)
chain: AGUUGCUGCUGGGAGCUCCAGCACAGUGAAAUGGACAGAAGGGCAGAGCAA

Variants of: B1
Test: exon inclusion enrichment index; higher = more inclusion; WT1 exon 5 minigene, HEK293
Measured exon inclusion enrichment index by item
measure: exon inclusion enrichment index

                variant_identifier                          measure  data_value
 0  G5C C6A U7C G8A U10A A37C G38A  exon inclusion enrichment index       0.149
 1            G5A C6G U7G C9A A39C  exon inclusion enrichment index     0.00101
 2  G5C C6A U7C G8A U10A G21A C22G  exon inclusion enrichment index       0.156
 3      C6A U7C C9A U10C C16G U17C  exon inclusion enrichment index        1.82
 4           G5C C6G U7C U10C A31U  exon inclusion enrichment index        3.18
 5             U4G G5A C6G U7G C9A  exon inclusion enrichment index     0.00812
 6  G5C C6U G8C C9U U10C G38A A39G  exon inclusion enrichment index        1.85
 7  G5C C6U G8C C9U U10C A45G G46C  exon inclusion enrichment index         2.3
 8                       G41C G42C  exon inclusion enrichment index       0.703
 9           G5A U7C G8A U10C A45U  exon inclusion enrichment index         2.8
10       G5A C6G U7G C9A G33A G34A  exon inclusion enrichment index    0.000844
11       G5A C6G U7G C9A U27C G28C  exon inclusion enrichment index      0.0122
12      C6A U7A C9A U10A A14U G15A  exon inclusion enrichment index       0.217
13           G5U G8U C9U A25U G26U  exon inclusion enrichment index      0.0927
14                G5C U7A C9A U10A  exon inclusion enrichment index       0.367
15  G5C C6U G8C C9U U10C C18G C19A  exon inclusion enrichment index        2.82
16      C6A U7A C9A U10A G12C G13A  exon inclusion enrichment index        1.72
17           G5C C6G U7C U10C G41U  exon inclusion enrichment index         3.2
18       G5C C6A U7C G8A U10A A23C  exon inclusion enrichment index      0.0903
19           C6A U7C C9A U10C C19U  exon inclusion enrichment index       0.759
20      G5A U7C G8A U10C G12A G13C  exon inclusion enrichment index       0.711
21   G5A C6U U7A G8U C9A U17A C18G  exon inclusion enrichment index      0.0258
22       G5A C6G U7G C9A G26C U27A  exon inclusion enrichment index     0.00255
23  G5C C6A U7C G8A U10A G33C G34A  exon inclusion enrichment index      0.0324
24      G5A U7C G8A U10C C44U A45G  exon inclusion enrichment index        1.53
25                G5U G8U C9U G42A  exon inclusion enrichment index       0.667
26      G5C C6G U7C U10C G34U A35U  exon inclusion enrichment index         1.2
27      G5A U7C G8A U10C A45U G46A  exon inclusion enrichment index        1.75
28      G5A U7C G8A U10C A23U C24A  exon inclusion enrichment index        1.02
29      C6A U7A C9A U10A C22G A23C  exon inclusion enrichment index       0.321
30                       G41A G42U  exon inclusion enrichment index       0.107
31      C6A U7A C9A U10A U17G C18A  exon inclusion enrichment index       0.619
32                C6A U7A C9A U10G  exon inclusion enrichment index       0.498
33           G5U G8U C9U U32G G33A  exon inclusion enrichment index      0.0116
34  G5C C6A U7C G8A U10A A45C G46C  exon inclusion enrichment index      0.0869
35                    G5U G8U U10C  exon inclusion enrichment index         1.8
36           C6A U7C C9A U10C G28A  exon inclusion enrichment index        1.59
37      G5A U7C G8A U10C A35G C36U  exon inclusion enrichment index       0.025
38      G5C C6G U7C U10C G46U A47G  exon inclusion enrichment index        2.91
39      G5C C6G U7C U10C G13A A14G  exon inclusion enrichment index         3.3
40  G5C C6U G8C C9U U10C G28C A29G  exon inclusion enrichment index        2.82
41           G5A U7C G8A U10C C44A  exon inclusion enrichment index        3.82
42                G5A U7C C9A U10C  exon inclusion enrichment index        2.95
43       G5A C6G U7G C9A G12A G13U  exon inclusion enrichment index     0.00417
44       G5A C6G U7G C9A G26A U27G  exon inclusion enrichment index     0.00208
45      C6A U7A C9A U10A A20U G21A  exon inclusion enrichment index       0.432
46   G5A C6U U7A G8U C9A A31C U32G  exon inclusion enrichment index      0.0628
47       G5A C6G U7G C9A A37U G38U  exon inclusion enrichment index     0.00105
48           G5U G8U C9U C36U A37U  exon inclusion enrichment index       0.081
49        G5C C6G U7G G8C C9U U10C  exon inclusion enrichment index        2.15
50      C6A U7C C9A U10C G21U C22A  exon inclusion enrichment index        2.02
51                            A31G  exon inclusion enrichment index       0.255
52      G5A U7C G8A U10C U32A G33C  exon inclusion enrichment index        2.91
53  G5C C6U G8C C9U U10C A23G C24A  exon inclusion enrichment index        3.38
54  G5C C6A U7C G8A U10A U17A C18A  exon inclusion enrichment index       0.043
55      C6A U7A C9A U10A G42A G43C  exon inclusion enrichment index        3.53
56      C6A U7A C9A U10A A29C A30C  exon inclusion enrichment index        1.17
57                G5U G8U C9U U27C  exon inclusion enrichment index       0.478
58           G5A U7C G8A U10A G11C  exon inclusion enrichment index        1.63
59      G5A U7C G8A U10C C16A U17G  exon inclusion enrichment index        1.33
60           G5A U7C G8A U10C G15U  exon inclusion enrichment index        2.27
61      G5C C6G U7C U10C A37U G38C  exon inclusion enrichment index        2.27
62           G5A U7C G8A U10C A30G  exon inclusion enrichment index        2.36
63      G5A U7C G8A U10C G33C G34A  exon inclusion enrichment index        1.53
64  G5C C6A U7C G8A U10A A35U C36A  exon inclusion enrichment index     0.00105
65      G5C C6G U7C U10C A23G C24A  exon inclusion enrichment index        4.41
66      G5C C6G U7C U10C U32G G33A  exon inclusion enrichment index        1.79
67  G5C C6A U7C G8A U10A A23U C24G  exon inclusion enrichment index       0.159
68      G5A U7C G8A U10C A20C G21U  exon inclusion enrichment index           1
69  G5C C6A U7C G8A U10A G11C G12U  exon inclusion enrichment index      0.0425
70      G5A U7C G8A U10C U27G G28U  exon inclusion enrichment index      0.0167
71                            C36A  exon inclusion enrichment index      0.0939
72            G5A C6G U7G C9A C36U  exon inclusion enrichment index     0.00174
73           G5C C6G U7C U10C G26U  exon inclusion enrichment index        3.19
74       G5C C6U G8C C9U U10C G38A  exon inclusion enrichment index        1.01
75   G5A C6U U7A G8U C9A A31U U32G  exon inclusion enrichment index      0.0286
76   G5A C6U U7A G8U C9A C18A C19A  exon inclusion enrichment index     0.00553
77  G5C C6U G8C C9U U10C C16G U17G  exon inclusion enrichment index       0.254
78      G5A U7C G8A U10C G28C A29U  exon inclusion enrichment index        1.13
79  G5C C6U G8C C9U U10C G42U G43A  exon inclusion enrichment index        3.34
80            G5C C6A U7C C9U U10A  exon inclusion enrichment index      0.0237
81           C6A U7C C9A U10C C18U  exon inclusion enrichment index         2.7
82                G5U G8U C9U C16U  exon inclusion enrichment index       0.128
83                G5U G8U C9U G21A  exon inclusion enrichment index      0.0718
84           G5U G8U C9U G12A G13C  exon inclusion enrichment index      0.0118
85      G5C C6G U7C U10C A35U C36A  exon inclusion enrichment index      0.0112
86            G5A C6G U7G C9A G43A  exon inclusion enrichment index     0.00629
87  G5C C6U G8C C9U U10C G41U G42A  exon inclusion enrichment index       0.727
88                     G5U G8U C9G  exon inclusion enrichment index       0.267
89                             G2C  exon inclusion enrichment index       0.141
90      C6A U7A C9A U10A G42U G43U  exon inclusion enrichment index        1.61
